Biological target: torpedo fish AchE (Torpedo marmorata, UniProt P07692)
Construct: from tissue
Sequence (P07692 25-590): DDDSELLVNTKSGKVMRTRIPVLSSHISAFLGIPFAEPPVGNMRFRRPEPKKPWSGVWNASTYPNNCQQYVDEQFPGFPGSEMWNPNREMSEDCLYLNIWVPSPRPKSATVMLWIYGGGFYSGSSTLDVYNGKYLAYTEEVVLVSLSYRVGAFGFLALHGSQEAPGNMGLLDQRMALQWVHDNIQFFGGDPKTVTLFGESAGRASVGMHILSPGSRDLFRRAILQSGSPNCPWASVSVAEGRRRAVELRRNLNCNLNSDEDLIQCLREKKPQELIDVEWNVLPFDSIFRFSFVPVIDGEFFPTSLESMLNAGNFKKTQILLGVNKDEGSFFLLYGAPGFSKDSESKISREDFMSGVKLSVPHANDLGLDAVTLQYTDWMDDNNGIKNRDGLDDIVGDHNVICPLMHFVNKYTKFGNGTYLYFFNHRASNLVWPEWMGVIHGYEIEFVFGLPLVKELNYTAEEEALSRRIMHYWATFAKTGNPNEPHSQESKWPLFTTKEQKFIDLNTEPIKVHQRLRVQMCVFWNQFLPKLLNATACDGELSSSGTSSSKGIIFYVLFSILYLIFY
Assay: Analysis of 5 pesticides dissolved in water by inhibition of immobilized AchE (Table VIII)
Assay type: biochemical
Conditions: 1000 μg/litre in water
Field: % of Residual activity. Provide a value for each of the molecules that follow.
A number alone suffices; assume %.

The recorded % of Residual activity for entry CNC(=O)Oc1cccc2ccccc12 [Carbaryl] equals 18

Given item COP(=O)(OC)OC=C(Cl)Cl [Dichlorvos] , the value recorded as its % of Residual activity is 3

Value of % of Residual activity reported for the molecule CCOP(=O)(OCC)Oc1ccc([N+](=O)[O-])cc1 [Paraoxon] is 0

What the record says about COP(=O)(OC)OC(Br)C(Cl)(Cl)Br (centres unmarked) [Naled] : % of Residual activity is 0

CNC(=O)Oc1cccc2c1OC(C)(C)C2 [Carbofuran] has a reported % of Residual activity of 14

---

Molecular target: torpedo fish AchE (Torpedo marmorata)
Construct: from tissue
Experiment: Analysis of 5 pesticides dissolved in water by inhibition of immobilized AchE (Table VIII)
Format: biochemical
Conditions: 10 μg/litre in water
measure_name: % of Residual activity (%)
I only need the number, in %, no unit after it.

The compound listed as COP(=O)(OC)OC(Br)C(Cl)(Cl)Br (centres unmarked) shows % of Residual activity equal to 11

Lab book: % of Residual activity of `COP(=O)(OC)OC=C(Cl)Cl` noted as 80

Reported % of Residual activity of `CCOP(=O)(OCC)Oc1ccc([N+](=O)[O-])cc1` : 40

The compound listed as `CNC(=O)Oc1cccc2ccccc12` shows % of Residual activity equal to 80

# % of Residual activity of `CNC(=O)Oc1cccc2c1OC(C)(C)C2` = 35

---

Record form. Attribute: % of Residual activity. Fill in for each entry.
Target: torpedo fish AchE (Torpedo marmorata)
Construct: from tissue
Test: Analysis of 5 pesticides dissolved in water by inhibition of immobilized AchE (Table VIII)
Assay type: biochemical
Conditions: 100 μg/litre in water
Give your result in % as a bare value.

// recorded % of Residual activity for `CCOP(=O)(OCC)Oc1ccc([N+](=O)[O-])cc1` : 0

Consider `CNC(=O)Oc1cccc2c1OC(C)(C)C2` . Its measured % of Residual activity is 18

// field: % of Residual activity; key: COP(=O)(OC)OC(Br)C(Cl)(Cl)Br (centres unmarked) ; value = 0

Please fill in: % of Residual activity reported for `COP(=O)(OC)OC=C(Cl)Cl` = 49

The compound identified as `CNC(=O)Oc1cccc2ccccc12` registered its % of Residual activity at 44

---

Assign % of Residual activity to each entry below.
Target: torpedo fish AchE (Torpedo marmorata, UniProt P07692)
Construct: from tissue
Assay: Analysis of 5 pesticides dissolved in water by inhibition of immobilized AchE (Table VIII)
Assay type: biochemical
Details: 50 μg/litre in water

Note to self: % of Residual activity recorded for COP(=O)(OC)OC(Br)C(Cl)(Cl)Br (centres unmarked) was 0%

Entry `CNC(=O)Oc1cccc2ccccc12` , % of Residual activity reported as 61%

# compound `COP(=O)(OC)OC=C(Cl)Cl` ; its % of Residual activity = 60%

So for `CCOP(=O)(OCC)Oc1ccc([N+](=O)[O-])cc1` , the logged % of Residual activity turned out to be 0%

// field: % of Residual activity; key: `CNC(=O)Oc1cccc2c1OC(C)(C)C2` ; value = 20%
